For reference, pKi measured on c-Met (Homo sapiens, UniProt P08581):
pKi: −log10 of the molar value.

Exercise: Sample Nc1nn2cc(-c3ccnc(N4CCC[C@@H]4CO)c3)cnc2c1-c1ccccn1 [Compound V-251] — what was its pKi?
Solution: > 6.30

Exercise: Sample Nc1nn2cc(-c3ccc(C(=O)N4CCC(N)C4)cn3)cnc2c1-c1ccccn1 (stereo not shown) [Compound V-81] — what was its pKi?
Solution: > 6.30

Exercise: Sample Cc1cccnc1-c1c(N)nn2cc(-c3ccncc3)cnc12 [Compound V-135] — what was its pKi?
Solution: 5.30 to 6.30

Exercise: Sample CCN(CC)c1cc(-c2c(N)nn3cc(-c4ccncc4)cnc23)ncn1 [Compound V-180] — what was its pKi?
Solution: > 6.30
